Hey, just so you know, these numbers are from ChEMBL document CHEMBL5724801.

Give Population Hoechst High Intensity Objects (%) for every item shown.
# System: Fibroblast
# protocolDescription: Multiplex assay against human fibroblast
# Assay type: toxicity, cell-based
# measurementConditions: 12 h, 1 µM, compound concentration 1 uM
Give the value, in units of %, as a plain number.

Which Population Hoechst High Intensity Objects (%) value is on record for COc1ccc2nc3ccc(OC)cc3c(SCCCN)c2c1.Cl ?
0

And what about the molecule C=C(C)[C@H]1CN[C@H](C(=O)O)[C@H]1CC(=O)O ?
0

And what about the molecule CNC[C@H](O)c1ccc(O)c(O)c1 [EPINEPHRINE] ?
1

And what about the molecule O=C1N=C(NCc2cccs2)S/C1=C\c1ccc2ncccc2c1 ?
0

And what about the molecule O=C(Nc1ccccc1Cl)c1cnc2ccc(C3CCNCC3)cn12.O=C(O)C(=O)O ?
0

And what about the molecule CC/C(=C(\c1ccc(O)cc1)c1ccc(OCCN(C)C)cc1)c1ccccc1 ?
0

====

# System: Fibroblast
# protocolDescription: Multiplex assay against human fibroblast
# Format: toxicity, cell-based
# measurementConditions: 48 h, 10 µM, compound concentration 10 uM
Give Population Hoechst High Intensity Objects (%) for every item shown.
Give the value, in units of %, as a plain number.

Which Population Hoechst High Intensity Objects (%) value is on record for CC/C(=C(\c1ccc(O)cc1)c1ccc(OCCN(C)C)cc1)c1ccccc1 ?
0

And what about the compound CC[C@H](Nc1ncnc2[nH]cnc12)c1nc2cccc(F)c2c(=O)n1-c1ccccc1 ?
0

And what about the compound O=C(O)Cc1ccccc1Nc1c(Cl)cccc1Cl ?
3

And what about the compound O=c1cccc2n1C[C@@H]1CNC[C@H]2C1 ?
0

And what about the compound CSCC[C@H](NC=O)C(=O)N[C@@H](CC(C)C)C(=O)N[C@@H](Cc1ccccc1)C(=O)O ?
29

And what about the compound CC(F)(F)CN1CCOc2c(nn(-c3ccccc3Cl)c2-c2ccc(Cl)cc2)C1=O ?
1

And what about the compound O=C1N=C(NCc2cccs2)S/C1=C\c1ccc2ncccc2c1 ?
0

And what about the compound CN[C@@H](C)C(=O)N[C@H](C(=O)N1CCC[C@H]1C(=O)Nc1snnc1-c1ccccc1)C1CCCCC1 ?
6

And what about the compound c1ccc2nc(N3CCNCC3)ccc2c1 ?
0

And what about the compound CC(C)Oc1ccc(F)c(-c2cnc(N)c(C(=O)Nc3cnccc3N3CCC[C@@H](C(=O)O)C3)n2)c1 ?
0

====

Give Population Normal (%) for every item shown.
# Test system: Fibroblast
# protocolDescription: Multiplex assay against human fibroblast
# Format: toxicity, cell-based
# measurementConditions: 48 h, 1 µM, compound concentration 1 uM

Which Population Normal (%) value is on record for CCc1nn2c(C)cc(C)nc2c1Cc1ccc(-c2nnc(C3CCNCC3)o2)cc1 ?
95%

And what about the compound O=C1NCc2ccc3c(-c4cccc(Cl)c4)c[nH]c3c21 ?
100%

And what about the compound C=C(C)[C@H]1CN[C@H](C(=O)O)[C@H]1CC(=O)O ?
100%

And what about the compound CNC[C@H](O)c1ccc(O)c(O)c1 [EPINEPHRINE] ?
98%

And what about the compound CC(C)c1ccc(/C=N/NC(=O)c2ccc(O)cc2)cc1 ?
100%

And what about the compound Cl.Cl.N#Cc1ccc(O[C@@H]2c3ccccc3C[C@H]2N2CCC[C@@H](N)C2)c(Cl)c1 ?
100%

And what about the compound Cl.NCCc1ccc(O)c(O)c1 [DOPAMINE HYDROCHLORIDE] ?
93%

And what about the compound COc1cc2ncnc(Nc3ccc(Oc4ccccc4)cc3C)c2cc1OC.Cl ?
100%

And what about the compound CC(C)Oc1ccc(F)c(-c2cnc(N)c(C(=O)Nc3cnccc3N3CCC[C@@H](C(=O)O)C3)n2)c1 ?
100%

And what about the compound Cn1cnc(-c2cnc(O[C@H]3CCN(C(=O)Cc4ccc(OC(F)(F)F)cc4)C[C@H]3F)c(C(N)=O)c2)c1 ?
100%

====

Give Population Apoptotic (%) for every item shown.
# Test system: Fibroblast
# protocolDescription: Multiplex assay against human fibroblast
# Assay type: toxicity, cell-based
# measurementConditions: 48 h, 10 µM, compound concentration 10 uM

Which Population Apoptotic (%) value is on record for COc1ccc2nc3ccc(OC)cc3c(SCCCN)c2c1.Cl ?
60%

And what about the compound CCC(=O)N1CCN(c2ccc(-n3c(=O)ccc4cnc5ccc(-c6cnc7ccccc7c6)cc5c43)cc2C(F)(F)F)CC1 ?
80%

And what about the compound COc1cc(C(=O)N2CC[C@@H](O)[C@@H](N)C2)cc2nc(-c3cc4ccccc4n3CC3CC3)n(C)c12.Cl ?
86%

And what about the compound CCn1c(-c2nc3cc(C(=O)N4CCCC(N)C4)ccc3n2C)cc2ccccc21.Cl (centres undefined) ?
76.92% [middle of 4 runs]

====

# Test system: U2OS
# protocolDescription: Multiplex assay against U2OS
# Assay type: toxicity, cell-based
# measurementConditions: human, 24 h, 10 µM, compound concentration 10 uM
measurementKind: Population Mitochondria Different-Phenotype (%)
Give the value, in units of %, as a plain number.

Which Population Mitochondria Different-Phenotype (%) value is on record for COCCCN1CCC(NC(=O)c2cc(Cl)c(N)c3c2OCC3)CC1 [PRUCALOPRIDE] ?
2

And what about the compound CC(C)(C)c1ccc(S(=O)(=O)Nc2ccc(Cl)cc2C(=O)c2cc[n+]([O-])cc2)cc1 ?
1

And what about the compound CCC(=O)N1CCN(c2ccc(-n3c(=O)ccc4cnc5ccc(-c6cnc7ccccc7c6)cc5c43)cc2C(F)(F)F)CC1 ?
9

And what about the compound O=C(NCCNCC(O)COc1ccc(O)cc1)N1CCOCC1.O=C(NCCNCC(O)COc1ccc(O)cc1)N1CCOCC1.O=C(O)/C=C/C(=O)O (stereo not drawn) [XAMOTEROL FUMARATE] ?
2

And what about the compound CN1CCN2c3ncccc3Cc3ccccc3C2C1 (stereo not drawn) ?
2

And what about the compound Cc1noc(-c2ccc(-c3ccc(CC(=O)O)cc3)cc2)c1NC(=O)O[C@H](C)c1ccccc1Cl ?
2

And what about the compound Cl.NCCc1ccc(O)c(O)c1 [DOPAMINE HYDROCHLORIDE] ?
0

====

# System: HEK-293T
# protocolDescription: Multiplex assay against HEK293T
# Assay type: toxicity, cell-based
# measurementConditions: human, 48 h, 10 µM, compound concentration 10 uM
Give Population Pyknosed Nuclei (%) for every item shown.
Give the value, in units of %, as a plain number.

Lookup: Population Pyknosed Nuclei (%) / HEK-293T / CC(F)(F)CN1CCOc2c(nn(-c3ccccc3Cl)c2-c2ccc(Cl)cc2)C1=O
11

And what about the molecule O=C(O)Cc1ccccc1Nc1c(Cl)cccc1Cl [DICLOFENAC] ?
7

And what about the molecule CN1CCC(C(=O)c2cccc(NC(=O)c3c(F)cc(F)cc3F)n2)CC1 ?
7

And what about the molecule C[C@@H]1C[C@H]2[C@@H]3CCC4=CC(=O)C=C[C@]4(C)[C@@]3(F)[C@@H](O)C[C@]2(C)[C@@]1(O)C(=O)CO [DEXAMETHASONE] ?
7

And what about the molecule O=C(NCCNCC(O)COc1ccc(O)cc1)N1CCOCC1.O=C(NCCNCC(O)COc1ccc(O)cc1)N1CCOCC1.O=C(O)/C=C/C(=O)O (stereo not given) [XAMOTEROL FUMARATE] ?
5

====

# Test system: U2OS
# protocolDescription: Multiplex assay against U2OS
# Assay type: toxicity, cell-based
# measurementConditions: human, 48 h, 1 µM, compound concentration 1 uM
Give Population Hoechst High Intensity Objects (%) for every item shown.
Could you write the number and then its unit?

Lookup: Population Hoechst High Intensity Objects (%) / U2OS / Cl.Cl.N#Cc1ccc(O[C@@H]2c3ccccc3C[C@H]2N2CCC[C@@H](N)C2)c(Cl)c1
0%

And what about the compound COc1cc(C(=O)N2CC[C@@H](O)[C@@H](N)C2)cc2nc(-c3cc4ccccc4n3CC3CC3)n(C)c12.Cl ?
2%

And what about the compound CC/C(=C(\c1ccc(O)cc1)c1ccc(OCCN(C)C)cc1)c1ccccc1 ?
0%

And what about the compound CCN1CCN(Cc2ccc(Nc3ncc(F)c(-c4cc(F)c5nc(C)n(C(C)C)c5c4)n3)nc2)CC1.CS(=O)(=O)O ?
0%

====

# System: Fibroblast
# protocolDescription: Multiplex assay against human fibroblast
# Assay type: toxicity, cell-based
# measurementConditions: 48 h, 10 µM, compound concentration 10 uM
Give Population Normal (%) for every item shown.
Give the value, in units of %, as a plain number.

Which Population Normal (%) value is on record for C=C(C)[C@H]1CN[C@H](C(=O)O)[C@H]1CC(=O)O ?
100

And what about the compound Cc1ccc(C(C)(O)c2nc3ccccc3s2)c(C)c1 (centres undefined) ?
92

And what about the compound CCN1CCN(Cc2ccc(Nc3ncc(F)c(-c4cc(F)c5nc(C)n(C(C)C)c5c4)n3)nc2)CC1.CS(=O)(=O)O ?
100

And what about the compound Cl.Cl.N#Cc1ccc(O[C@@H]2c3ccccc3C[C@H]2N2CCC[C@@H](N)C2)c(Cl)c1 ?
100

And what about the compound O=C1N=C(NCc2cccs2)S/C1=C\c1ccc2ncccc2c1 ?
100

And what about the compound O=C(O)Cc1ccccc1Nc1c(Cl)cccc1Cl ?
96

And what about the compound COc1cc2ncnc(Nc3ccc(Oc4ccccc4)cc3C)c2cc1OC.Cl ?
100

And what about the compound CN[C@@H](C)C(=O)N[C@H](C(=O)N1CCC[C@H]1C(=O)Nc1snnc1-c1ccccc1)C1CCCCC1 ?
93

And what about the compound CC/C(=C(\c1ccc(O)cc1)c1ccc(OCCN(C)C)cc1)c1ccccc1 ?
100
